Please respond with reported Degree of resistance for VCR VJ-300 for every item in the list.
System: VJ-300 cells
TEST NAME: In vitro test of action suppressing proliferation of cancer cells, combined administration of vincristine, resistant cells
Format: cell-based, Human
CONDITION DESCRIPTION: VCR alone or VCR + test compound 1 µg/ml, LD50 of VCR relative to VCR alone in KB cells = 1
// return just the number, without any unit appended

Tell me the measured Degree of resistance for VCR VJ-300 of CCOC(=O)C1=C(c2ccc(-n3c(C)nc4cnccc43)cc2)NC(C)=C(C(=O)OCCCc2cccnc2)C1C(C)C (stereo not shown) [Compound 2] , please.
9.6

Tell me the measured Degree of resistance for VCR VJ-300 of CCCCCC1C(C(=O)OCCCc2cccnc2)=C(C)NC(c2ccc(-n3c(C)nc4ncccc43)cc2)=C1C(=O)OCC (stereo not shown) [Compound 3] , please.
7.1

Tell me the measured Degree of resistance for VCR VJ-300 of CCCCCC1C(C(=O)OCCCc2cccnc2)=C(C)NC(c2ccccc2)=C1C(=O)OCC (stereo not shown) [Compound 15] , please.
6.5

###

Tested on: VCR resistant murine leukemia (P388/VCR) cells
TEST NAME: In vivo test: overcoming resistance to vincristine in VCR resistant murine leukemia cell bearing mice
Set-up: species or system CDF1 male mice
CONDITION DESCRIPTION: P388/VCR bearing CDF1 mice; VCR 100 µg/kg alone or with compound 100 mg/kg, intraperitoneally for 5 days; T/C of combination over T/C of VCR alone x 100
Please respond with reported Effect of overcoming resistance T/V (%) for every item in the list.
Output spec: scalar in %, unitless text.

Tell me the measured Effect of overcoming resistance T/V (%) of CCCCCC1C(C(=O)OCCCc2cccnc2)=C(C)NC(c2ccc(-n3c(C)nc4ncccc43)cc2)=C1C(=O)OCC (centres unmarked) [Compound 3] , please.
133

Tell me the measured Effect of overcoming resistance T/V (%) of CCCCCC1C(C(=O)OCCCc2cccnc2)=C(C)NC(c2ccccc2)=C1C(=O)OCC (centres unmarked) [Compound 15] , please.
128

Tell me the measured Effect of overcoming resistance T/V (%) of CCCCCC1C(C(=O)OCCCc2cccnc2)=C(C)NC(c2cccnc2)=C1C(=O)OCC (centres unmarked) [Compound 16] , please.
143

Tell me the measured Effect of overcoming resistance T/V (%) of CC[C@]1(O)C[C@H]2CN(CCc3c([nH]c4ccccc34)[C@@](C(=O)OC)(c3cc4c(cc3OC)N(C=O)[C@H]3[C@@](O)(C(=O)OC)[C@H](OC(C)=O)[C@]5(CC)C=CCN6CC[C@]43[C@@H]65)C2)C1 [VCR, vincristine, reference compound] , please.
100

Tell me the measured Effect of overcoming resistance T/V (%) of CCCCCC1C(C(=O)OC/C=C/c2cccnc2)=C(C)NC(c2ccc(-n3c(C)nc4cnccc43)cc2)=C1C(=O)OCC (centres unmarked) [Compound 23] , please.
138

Tell me the measured Effect of overcoming resistance T/V (%) of CCOC(=O)C1=C(c2ccc(-n3ccnc3)cc2)NC(C)=C(C(=O)OCCCc2cccnc2)C1/C=C/c1ccccc1 (centres unmarked) [Compound 43] , please.
137

Tell me the measured Effect of overcoming resistance T/V (%) of CCOC(=O)C1=C(c2ccc(-n3c(C)nc4ncccc43)cc2)NC(C)=C(C(=O)OCCCc2cccnc2)C1C(C)C (centres unmarked) [Compound 1] , please.
113

Tell me the measured Effect of overcoming resistance T/V (%) of CCOC(=O)C1=C(c2ccc(-n3c(C)nc4cnccc43)cc2)NC(C)=C(C(=O)OC/C=C/c2cccnc2)C1CCc1ccccc1 (centres unmarked) [Compound 24] , please.
136

Just for reference, patent EP0943615A1 is where these values come from.
